# Tested on: HepaRG spheroids
# condition-info: human
recorded-metric: HepaRG Cmax max All

molecule | experimental-target | measured-value
CO[C@@]12[C@H](COC(N)=O)C3=C(C(=O)C(C)=C(N)C3=O)N1C[C@@H]1N[C@@H]12 [mitomycin C] | HepaRG spheroids | +ve
O=P1(N(CCCl)CCCl)NCCCO1 (stereo not shown) [cyclophosphamide, reference compound] | HepaRG spheroids | +ve
CC(C)[N+](C)(CCOC(=O)C1c2ccccc2Oc2ccccc21)C(C)C [propantheline] | HepaRG spheroids | -ve
Nc1c2c(nc3ccccc13)CCCC2 [tacrine, reference compound] | HepaRG spheroids | -ve

---

# System: hLiMTs
# test-name: Combined HCI (HCS) and cellular ATP 3D assay in hLiMTs
# condition-info: Homo sapiens, read-out: ATP endpoint MEC
recorded-metric: log10 minimal effective concentration (log10 of the value in µM)
Could you please treat all values as log10 of minimal effective concentration in µM?

QUERY: May I ask what log10 minimal effective concentration has been recorded for `CO[C@@]12[C@H](COC(N)=O)C3=C(C(=O)C(C)=C(N)C3=O)N1C[C@@H]1N[C@@H]12` ?
RESULT: -0.34

QUERY: May I ask what log10 minimal effective concentration has been recorded for `O=C(O)Cc1ccccc1Nc1c(Cl)cccc1Cl` ?
RESULT: 1.24

QUERY: May I ask what log10 minimal effective concentration has been recorded for `CN(C)C(=N)N=C(N)N` ?
RESULT: 2.70

QUERY: May I ask what log10 minimal effective concentration has been recorded for Cc1c(-c2ccccc2)oc2c(C(=O)OCCN3CCCCC3)cccc2c1=O [flavoxate] ?
RESULT: 2.05

QUERY: May I ask what log10 minimal effective concentration has been recorded for Nc1c2c(nc3ccccc13)CCCC2 [tacrine, reference compound] ?
RESULT: 1.65

QUERY: May I ask what log10 minimal effective concentration has been recorded for `CC/C(=C(\c1ccccc1)c1ccc(OCCN(C)C)cc1)c1ccccc1` ?
RESULT: 0.59

QUERY: May I ask what log10 minimal effective concentration has been recorded for `CCN(CC)C(=O)/C(C#N)=C/c1cc(O)c(O)c([N+](=O)[O-])c1` ?
RESULT: 2.10

QUERY: May I ask what log10 minimal effective concentration has been recorded for Cc1ccc(C(=O)c2cc(O)c(O)c([N+](=O)[O-])c2)cc1 [tolcapone, reference compound] ?
RESULT: 2.06

QUERY: May I ask what log10 minimal effective concentration has been recorded for NCCCC(O)(P(=O)(O)O)P(=O)(O)O [alendronate] ?
RESULT: 0.46

QUERY: May I ask what log10 minimal effective concentration has been recorded for NC(=O)N1c2ccccc2C=Cc2ccccc21 [carbamazepine, reference compound] ?
RESULT: 1.87

QUERY: May I ask what log10 minimal effective concentration has been recorded for O=C1CC2(CCCC2)CC(=O)N1CCCCN1CCN(c2ncccn2)CC1 [buspirone, reference compound] ?
RESULT: 0.49

QUERY: May I ask what log10 minimal effective concentration has been recorded for `COc1ccccc1Oc1c(NS(=O)(=O)c2ccc(C(C)(C)C)cc2)nc(-c2ncccn2)nc1OCCO` ?
RESULT: 1.47

QUERY: May I ask what log10 minimal effective concentration has been recorded for `CC(=O)Nc1ccc(O)cc1` ?
RESULT: 2.47

QUERY: May I ask what log10 minimal effective concentration has been recorded for CCc1ccc(CCOc2ccc(CC3SC(=O)NC3=O)cc2)nc1 (centres unmarked) [pioglitazone, reference compound] ?
RESULT: 1.58
